# Protocol Summary: blockers of RIG-like receptor reporter activation – cell-based, Sendai virus stimulus, luciferase, 10K MLSCN set, TLR/RLR signaling modifier project, primary screen (AID 602276);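 further: firefly luciferase from ISG56 promoter only with Renilla not read in this screen; 0% = Sendai virus plus DMSO and 100% = medium plus DMSO without virus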
# Experimental Context: HEK293 RL24 IRF3 luciferase reporter, at 10 µM, active compounds read high
Overview of reported inhibition across a group of compounds:
Quantity Kind: inhibition (%)

{"columns": ["Compound", "Value Observed"],
 "data": [
  ["CC1(c2ccc(Cl)cc2)NC(=O)N(CC(=O)NC(=O)NCc2ccco2)C1=O (stereo not given)", 14.9],
  ["CCCN(Cc1cc2ccc(C)cc2[nH]c1=O)C(=O)c1cccnc1", 11.3],
  ["O=C(CCCC(=O)OCC(=O)NC1CCCC1)Nc1ccccn1", 14],
  ["Cc1cc(NC(=O)COC(=O)C2COc3ccccc3O2)no1 (stereo not given)", 7.14],
  ["O=C1CC(N2CCN(c3ccc(Cl)c(Cl)c3)CC2)C(=O)N1 (stereo not given)", -2.47],
  ["Cn1c(SCc2nnc3n2CCCCC3)nc2ccccc21", 14],
  ["COc1ccc(NC(=O)CCc2nc(-c3ccccc3F)no2)cc1", 4.66],
  ["CCCCOc1ccc(-c2ncc(Cl)cn2)cc1", -30],
  ["Cc1nc2ncnn2c(Nc2ccc3c(c2)OCCO3)c1C", 9.15],
  ["Cc1ccc(N2C(=O)c3oc4ccccc4c(=O)c3C2c2cccc(O)c2)nc1 (stereo not given)", 11],
  ["CCC(C)(C)NC(=O)C(c1ccco1)N(C(=O)Cn1nnc2ccccc21)c1ccc2c(c1)OCO2 (stereo not given)", 14.6],
  ["C=CCN1C(=O)C2(c3ccccc31)C1CCCC=C1C(C#N)=C(N)C2(C#N)C#N (stereo not given)", -7.36],
  ["COc1ccc(OC)c(S(=O)(=O)N2CCC(C(=O)NCC3CCCO3)CC2)c1 (stereo not given)", 14.9],
  ["O=C(CN1CCCN(S(=O)(=O)c2ccc(F)cc2)CC1)Nc1ccccc1Br", 3.65],
  ["COc1ccc(C2CC(=O)C(C=NCCCN3CCOCC3)=C(O)C2)cc1 (stereo not given)", 14.7],
  ["CS(=O)(=O)NCCSCc1c(F)cccc1Cl", 2.63],
  ["CCOC(=O)c1ccc(NS(=O)(=O)c2ccc3c(c2)CCCN3C(C)=O)cc1", 1.89],
  ["O=C(O)c1c(Cl)c(Cl)c(Cl)c(Cl)c1C(=O)N1CCOCC1", 7.47],
  ["CC(C)n1nc(C(=O)Nc2nc3ccc(S(C)(=O)=O)cc3s2)c2ccccc2c1=O", 18.5],
  ["CCCC(NC(=O)c1ccccc1)c1nc2ccccc2n1Cc1ccc(C(=O)OC)o1 (stereo not given)", 0.936],
  ["CC(=O)N1CCN(C(C)=O)C1c1ccccc1", -22],
  ["Cc1nnc(SCC(=O)N(C(C)C)C(C)C)nc1C", 6.7],
  ["N#CC(C(=O)NCCc1ccccc1)c1nc2ccccc2nc1N1CCOCC1 (stereo not given)", -27.6],
  ["Cc1nnc(SCC(=O)N2c3ccccc3CC2C)s1 (stereo not given)", 4.91],
  ["CCOCCCNC(=O)C1CCC(CNS(=O)(=O)c2cccc3nsnc23)CC1 (stereo not given)", 8.12],
  ["Cc1cccc(NC(=O)C2CCCN2C(=O)OCC(C)C)c1C (stereo not given)", 5.88],
  ["CCOC(=O)C1=C(C)Nc2nnnn2C1c1ccc(OC)c(Br)c1 (stereo not given)", -20],
  ["Cc1nc2ncnn2c(C)c1CCC(=O)NCCCN1CCN(c2cccc(Cl)c2)CC1", 4.7],
  ["CCN(CCCNC(=O)CCNC(=O)Cn1ccc2ccccc2c1=O)c1ccccc1", -0.268],
  ["c1ccc(CCNc2ccc3nncn3n2)cc1", 6.01],
  ["CCCNC(=O)c1ccccc1C(=O)NCCC", 15.6],
  ["CCC1SC2=NC(C)=C(C(=O)OC)C(c3ccc(C)cc3)N2C1=O (stereo not given)", -10.4],
  ["Cc1nc2ccc(CCO)cc2s1", 5.43],
  ["COc1ccc(OCC(O)Cn2c(Br)nc3c2c(=O)[nH]c(=O)n3C)cc1 (stereo not given)", 35],
  ["COc1ccc(OCC(=O)N2CCN(C(=O)Cc3ccccc3)CC2)cc1", -10.1],
  ["CCCSc1nc2c(cnn2-c2ccc(C)cc2)c(=O)[nH]1", -9.65],
  ["Cc1ccc(-n2c3c(cc(C(=O)NC4CCSC4=O)c2=O)C(=O)CC(C)(C)C3)cc1 (stereo not given)", -0.246],
  ["COc1cccc(-n2ccnc2SCC(=O)N2CCc3ccccc32)c1", -3.01],
  ["CCOC(=O)c1c(C)[nH]c(C)c1C(=O)COc1ccc(NC(=O)c2ccco2)cc1", 14.6],
  ["O=C(CCn1c(=S)[nH]c2ccccc2c1=O)NCC1CCCO1 (stereo not given)", 8.18],
  ["CN1CCN(C(=O)C2CCN(S(=O)(=O)c3ccc4c(c3)oc(=O)n4C)CC2)CC1", 8.49],
  ["Fc1cccc2sc(N3CCOCC3)nc12", -10.5],
  ["N#Cc1nc(-c2ccco2)oc1N1CCN(c2cccc(Cl)c2)CC1", 8.62],
  ["Cn1c(=O)[nH]c(=O)c2c1nc(CN1CCN(c3cccc(Cl)c3)CC1)n2CCc1ccccc1", -13.9],
  ["CC1CN(Cc2nc3c(c(=O)[nH]c(=O)n3C)n2CC(N)=O)CC(C)O1 (stereo not given)", 12.8]
]}

====

# Protocol Summary: reduction of polyQ htt aggregates in cells – imaging, exon1htt(103Q)mCFP cells, high-content imaging, primary screen (AID 483);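 further: compound exposure lasted 3 days before fixation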
# Experimental Context: exon1htt(103Q)mCFP cell line, aggregate imaging, at 2 µM; active compounds read high
The source made the active and inactive calls.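 How the source made its calls: active means visual image review flags a hit and inhibition of aggregation exceeds 20%; inconclusive means visual hit but inhibition at or below 20%; inactive means no hit on visual image review.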
Overview of reported inhibition of aggregation across a group of compounds:

{"columns": ["Compound", "inhibition of aggregation"],
 "data": [
  ["c1ccc(-c2nnc(CSc3nncs3)o2)cc1", "-19% (inactive)"],
  ["O=C(CNC(=O)c1ccccc1C(=O)O)c1ccccc1", "9.6% (inactive)"],
  ["CCOC(=O)N1CCC(N2C(=O)c3ccccc3C2Nc2cc(Cl)c(OC)cc2OC)CC1 (centres undefined)", "-25.4% (inactive)"],
  ["CCOc1ccc(OCCCCN(C)C)cc1", "5.3% (inactive)"],
  ["CCOc1ccccc1NC(=O)CSc1nnc(Cc2cccn2C)n1-c1ccc(F)cc1", "-9.7% (inactive)"],
  ["CCCCCn1c(CN2CCN(C(=O)OCC)CC2)nc2c1c(=O)[nH]c(=O)n2C", "10.4% (inactive)"],
  ["Cc1noc(C)c1COc1cccc(C(=O)Nc2ccc(C#N)cc2)c1", "3.1% (inactive)"],
  ["COc1ccccc1N1CC(O)=C(c2nc3ccccc3c(=O)[nH]2)C1=N", "22.7% (inactive)"],
  ["Cn1c(-c2ccc(C(C)(C)C)cc2)n[nH]c1=S", "-4.8% (inactive)"],
  ["Cc1ccc(S(=O)(=O)N2CCC(C(=O)NCCN3CCCCCC3)CC2)cc1", "-2.1% (inactive)"],
  ["CCN(CC)c1ccc(NC(=O)CN2C(=O)CC(C)(C)S(=O)(=O)c3ccccc32)c(C)c1", "30.2% (inactive)"],
  ["COc1ccccc1NC(=O)c1oc2ccccc2c1NC(=O)c1cc(OC)c(OC)c(OC)c1", "-17.1% (inactive)"],
  ["O=C(Nc1ccc(N2CCOCC2)cc1)C1CC1", "25% (inactive)"],
  ["CCOCC(=O)Nc1nc2c(s1)C(=O)CC(C)(C)C2", "-38% (inactive)"],
  ["Cc1ccc(-c2cn3nc(C)c(C)nc3n2)cc1", "-5.7% (inactive)"],
  ["COc1ccc(S(=O)(=O)N(CC(=O)N2CCN(c3ccccc3OC)CC2)c2ccccc2)cc1", "-12.6% (inactive)"],
  ["CC(C)CCNC(=O)NC(=O)COc1ccccc1C#N", "15.6% (inactive)"],
  ["CNC(=O)CSc1nnc(-c2cc3c(C)nn(-c4ccccc4)c3s2)n1C", "2.8% (inactive)"],
  ["O=C(CSc1ncnc2nc[nH]c12)c1ccc(Cl)cc1", "9.4% (inactive)"],
  ["COc1ccc(-c2noc(CCCC(=O)O)n2)cc1", "-3.1% (inactive)"],
  ["Nc1nnc(SCc2cc3c(cc2Cl)OCO3)s1", "-3.1% (inactive)"],
  ["COc1ccc(OCCCC(=O)Nc2nncs2)cc1", "12.8% (inactive)"],
  ["COC(=O)c1[nH]c2ccc(C)cc2c1NC(=O)CN1CCCc2ccccc21", "21.6% (inactive)"],
  ["CC(C)COC(=O)C1C2C=CC3(CN(C(C)c4ccc(Br)cc4)C(=O)C13)O2 (centres undefined)", "28.1% (inactive)"]
]}

====

# Protocol Summary: reduction of polyQ htt aggregates in cells – imaging, exon1htt(103Q)mCFP cells, high-content imaging, primary screen (AID 483);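 further: compound exposure lasted 3 days before fixation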
# Experimental Context: exon1htt(103Q)mCFP cell line, aggregate imaging, at 2 µM; active compounds read high
Active and inactive are the calls of the source.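 How the source made its calls: active means visual image review flags a hit and inhibition of aggregation exceeds 20%; inconclusive means visual hit but inhibition at or below 20%; inactive means no hit on visual image review.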

{"columns": ["Compound", "inhibition of aggregation"],
 "data": [
  ["CCOC(=O)c1c(N)sn(-c2ccccc2)c1=S", "5.4% (inactive)"],
  ["CC1CCc2nn(CC(=O)NCCCN3CCOCC3)cc2C1 (stereo unspecified)", "-17.8% (inactive)"],
  ["Cc1cc(NC(=O)CSc2nc(CCC3CCCC3)nc3ccccc23)no1", "-13.6% (inactive)"],
  ["CCOC(=O)c1sc2nc(SCC(=O)NCc3ccco3)n(Cc3ccccc3)c(=O)c2c1C", "0.8% (inactive)"],
  ["Cn1c(=O)[nH]c(=O)c2c1nc(NC1CCCCC1)n2CC(=O)NC1CCCCC1", "12.1% (inactive)"],
  ["Cc1c(C(=O)NCc2ccccc2)oc2c1C(=O)CCC2", "-28.3% (inactive)"],
  ["CCOC(=O)c1oc2ccccc2c1NC(=O)c1cccc(OC)c1OC", "-13% (inactive)"],
  ["CNc1nnc(-c2cccc(N(C)C)c2)s1", "-2.3% (inactive)"],
  ["CCCS(=O)(=O)N1CCCC(C(=O)NC2CCCC(C)C2C)C1 (stereo unspecified)", "7.4% (inactive)"],
  ["COc1ccc(OC)c(S(=O)(=O)N2CCN(c3c(C)cccc3C)CC2)c1", "30.2% (inactive)"],
  ["CC1CCN(C(=O)CSCC(=O)Nc2nc(-c3cccs3)cs2)CC1", "17.8% (inactive)"],
  ["Cc1ccc(-c2nn3c(C)nnc3s2)cc1N", "9.7% (inactive)"],
  ["CN(C)c1nc(N)nc(-c2nc3ccccc3s2)n1", "-13.6% (inactive)"],
  ["Cc1ccc(CNC(=O)COC(=O)c2c(C)noc2C)cc1", "23.2% (inactive)"],
  ["Cc1cccc(C2CC(c3ccccc3)Nc3nc(N)nn32)c1 (stereo unspecified)", "7.7% (inactive)"],
  ["CCN(CCNC(=O)C1CCN(S(C)(=O)=O)CC1)c1ccccc1", "-13.1% (inactive)"],
  ["Cc1ccc(N(C)C(=O)N2CCN(c3ccccn3)CC2)cc1", "30.2% (inactive)"],
  ["Cc1ccc(-n2c(-c3ccncc3)nnc2-c2cccs2)cc1", "-22.5% (inactive)"],
  ["COc1ccc(-n2ccnc2SCC(=O)NCc2ccc3c(c2)OCO3)cc1", "-17.1% (inactive)"],
  ["CCN(CC)C1CCCCC1NS(=O)(=O)c1ccc(Cl)cc1 (stereo unspecified)", "14.4% (inactive)"],
  ["CC1=C(C)CC2C(=O)N(c3cccc4ccccc34)C(=O)C2C1 (stereo unspecified)", "1.2% (inactive)"],
  ["CC(=O)OC1c2ccccc2C(=O)N1Cc1ccccc1Cl (stereo unspecified)", "34% (inactive)"],
  ["Fc1ccc(NCc2nnc(SCc3nnc(-c4ccccc4)o3)n2CC2CCCO2)cc1 (stereo unspecified)", "-6% (inactive)"],
  ["Cc1cc(C(=O)NCc2cccnc2)no1", "6.9% (inactive)"],
  ["O=C(Nc1ccccc1C(=O)N1CCOCC1)C1CCC(=O)N1C1CCCC1 (stereo unspecified)", "8.7% (inactive)"],
  ["COc1cc2c(cc1NC(=O)CN1CCN(S(=O)(=O)c3ccc(F)cc3)CC1)oc1ccccc12", "-2.8% (inactive)"],
  ["CC1CCN(c2c(NCc3ccc(C(=O)N4c5ccccc5CC4C)cc3)c(=O)c2=O)CC1 (stereo unspecified)", "31.5% (inactive)"],
  ["COCCOC(=O)c1[nH]c2c(c1C)C(=O)CC(c1ccc(N(C)C)cc1)C2 (stereo unspecified)", "-19% (inactive)"],
  ["Cc1ccc(C(=O)CC2(O)C(=O)N(CN3CCOCC3)c3ccccc32)cc1 (stereo unspecified)", "-5.7% (inactive)"],
  ["O=S(=O)(c1ccc(N2CCN(c3ccc(F)cc3)CC2)cc1)N1CCCC1", "-8.7% (inactive)"],
  ["CCCc1cc(=O)[nH]c(/N=C(\\N)Nc2ccccc2)n1", "-12.7% (inactive)"],
  ["CCCN(Cc1cc2ccc(C)cc2[nH]c1=O)C(=O)c1cccnc1", "-34.8% (inactive)"],
  ["Brc1ccc(-c2csc(/N=C/N3CCOCC3)n2)cc1", "-0.1% (inactive)"],
  ["Cc1[nH]c2ccccc2c1Cc1nnc(SCC(=O)NCc2ccco2)o1", "12.9% (inactive)"],
  ["N#Cc1nc(-c2ccco2)oc1NCCc1ccccc1", "-10.1% (inactive)"],
  ["Cn1cc(Cl)c(C(=O)NC2CCCC2)n1", "26.8% (inactive)"],
  ["CC(=O)c1ccc(OCC(O)CN2CCN(CCO)CC2)cc1 (stereo unspecified)", "-14.2% (inactive)"],
  ["COc1ccc(C2C3=C(OC(C)=O)c4ccccc4C3=Nc3c2c(=O)n(C)c(=O)n3C)cc1 (stereo unspecified)", "-0.9% (inactive)"],
  ["Cc1noc(/C=C/N(C)C)c1S(=O)(=O)N1CCCC(C(=O)NCCC2=CCCCC2)C1 (stereo unspecified)", "-2.1% (inactive)"],
  ["CCOC(=O)Cc1nnc2c(Nc3ccccc3F)nc3nonc3n12", "-25.8% (inactive)"],
  ["CCOc1ccc(N(CC(=O)Nc2ccc(C)c(C)c2)S(=O)(=O)c2c(C)noc2C)cc1", "-19.3% (inactive)"],
  ["C/C=C(\\C)c1nnc(NC(=O)C(C)C)s1", "-12.2% (inactive)"],
  ["COc1ccc(C2C(C#N)=C(N)Oc3cc4c(cc32)OCO4)cc1 (stereo unspecified)", "4.7% (inactive)"],
  ["CC(Sc1nnnn1C)C(=O)Nc1ccc(Oc2ccccc2)cc1 (stereo unspecified)", "-25.9% (inactive)"],
  ["O=C(COC(=O)c1ccccc1O)Nc1ccc(OC(F)F)cc1", "-8.4% (inactive)"],
  ["CCOC(=O)Cn1c(=N)n(CCOc2cccc(C)c2)c2ccccc21", "19.9% (inactive)"]
]}

Cited source: PubChem BioAssay
